target: 80S Ribosome; assay: Binding affinity to 80S ribosome in human HuH7 cells harboring pCMV-truncated human PCSK9 (1 to 152 residues)-proLuc assessed as inhibition of PCSK9 mRNA translation after overnight incubation by luciferase reporter gene assay; format: cell-based; conditions: huh-7
pIC50: −log10 of the molar value.
Threshold rule: pIC50 greater than or equal to 6 is TRUE; below that, FALSE.

Exercise: Record O=C(c1ccc(-c2cnccn2)cc1)N(c1nccc2ccccc12)[C@@H]1CCCNC1 ; criterion: pIC50 no lower than 6. Met?
Solution: FALSE

Exercise: Record O=C(c1ccc(-n2nnc3cccnc32)nc1)N(c1ncccc1Cl)[C@@H]1CCCNC1 ; criterion: pIC50 no lower than 6. Met?
Solution: FALSE

Exercise: Record Cc1ccc2nnn(-c3ccc(C(=O)N(c4ncccc4Cl)[C@@H]4CCCNC4)cc3)c2n1 ; criterion: pIC50 no lower than 6. Met?
Solution: TRUE

Exercise: Record O=C(c1ccc(-n2nnc3cccnc32)cc1)N(c1ncccc1Cl)[C@@H]1CCCNC1 ; criterion: pIC50 no lower than 6. Met?
Solution: TRUE

Exercise: Record Cc1cnc2c(c1)nnn2-c1ccc(C(=O)N(c2ncccc2Cl)[C@@H]2CCCNC2)cc1 ; criterion: pIC50 no lower than 6. Met?
Solution: TRUE

Exercise: Record COc1ccc(CCC(=O)N(c2nccc3ccccc23)[C@@H]2CCCNC2)cc1 ; criterion: pIC50 no lower than 6. Met?
Solution: FALSE

Exercise: Record O=C(c1ccc(-n2nnc3cccnc32)cc1)N(c1nccc2ccccc12)[C@@H]1CCCNC1 ; criterion: pIC50 no lower than 6. Met?
Solution: TRUE

All figures here come from ChEMBL document CHEMBL4118248.
